system: IL-17 production by CD4 T cells; assay: Human Th17 Assay (IL-17 production by CD4 T cells under Th17 differentiation conditions); assay type: cell-based; details: 3 days, IL-17 in supernatant
Response field label: string, one of 1 (IC50 strictly below 200 nM) or 0.

# count of solved cases: 3
| COMPOUND | TEST_TARGET | CLASS_ASSIGNMENT |
| --- | --- | --- |
| COc1nc2ccc(C(O)(c3cncn3C)C3CCN(C(C)=O)CC3)cc2c(C#N)c1-c1cccc(C(F)(F)F)c1 (single isomer, unassigned) [Example 2c] | IL-17 production by CD4 T cells | 0 |
| COc1nc2ccc(C(O)(c3ccc(C(F)(F)F)nc3)c3cncn3C)cc2c(Cl)c1-c1ccc(Cl)s1 (single isomer, unassigned) [Example 14c] | IL-17 production by CD4 T cells | 0 |
| COc1nc2ccc(C(O)(c3cncn3C)c3cnnn3C)cc2c(C#N)c1-c1cccc(C(F)(F)F)c1 (single isomer, unassigned) | IL-17 production by CD4 T cells | 1 |

Consider COc1nc2ccc(C(O)(c3cnnn3C)c3cnc(C)n3C)cc2c(Cl)c1-c1ccccc1 (single isomer, unassigned) [Example 41c] . Does its IC50 lie strictly below 200 nM?
0

Bench note: check whether COc1nc2ccc(C(O)(c3cncn3C)c3cnnn3C)cc2c(Cl)c1-c1cccc(C(F)(F)F)c1 (single isomer, unassigned) [Example 3c] shows IC50 below 200 nM
1

====

Biological target: wild type human RORγt ligand binding domain (RORγt LBD) (Homo sapiens)
Construct: His-tag (N); TurboTEV protease cleavage site (ENLYFQG) (N)
Sequence (P51449 269-508 limits assumed): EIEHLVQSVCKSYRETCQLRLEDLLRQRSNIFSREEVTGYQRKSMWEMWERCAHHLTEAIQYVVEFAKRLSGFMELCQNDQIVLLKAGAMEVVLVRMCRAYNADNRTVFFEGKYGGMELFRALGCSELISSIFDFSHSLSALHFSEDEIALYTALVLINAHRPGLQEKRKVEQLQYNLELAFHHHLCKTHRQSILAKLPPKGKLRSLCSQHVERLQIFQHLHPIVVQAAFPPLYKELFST
Assay: RORγt ThermoFluor® Assay (thermal shift, binding affinity)
Conditions: pH 7.0, estimated from concentration response curves
pKd: −log10 of the molar value.
Criterion: pKd meeting or surpassing 7. Met: Y. Not met: N.

| COMPOUND | CLASS_ASSIGNMENT |
| --- | --- |
| CN(CCO)c1nc2ccc(C(O)(c3ccc(Cl)cc3)c3cncn3C)cc2c(Cl)c1-c1ccccc1 (stereo not drawn) [Example 46] | N |

Assess whether reported pKd for COc1nc2ccc(C(O)(c3sc(C)nc3C)c3cncn3C)cc2c(Cl)c1-c1ccccc1 (stereo not drawn) [Example 37] sits at 7 or higher.
Y

Hi, just wondering whether COc1nc2ccc(C(O)(c3ccc(C(F)(F)F)nc3)c3cncn3C)cc2c(Cl)c1-c1cnn(C)c1 (stereo not drawn) [Example 8] shows pKd of 7 or higher.
N

Test whether the compound Cc1cc(C(O)(c2ccc(C(F)(F)F)nc2)c2cncn2C)cc2c(C#N)c(-c3ccccc3)c(C#N)nc12 (single isomer, unassigned) [Example 25b] records pKd of 7 or higher.
N

Hello, I need to know if COc1nc2ccc(C(O)(c3cncn3C)c3cnnn3C)cc2c(C#N)c1-c1cccc(C(F)(F)F)c1 (single isomer, unassigned) [Example 4c] has measured pKd not below 7. Thanks!
Y
